Recorded total protein half-life in vivo by entry
- Experiment Notes: total protein half-life in vivo (active degradation + dilution); higher = more stable protein
- Condition Details: wild type E. coli NCM3722; growth: C-lim chemostat; doubling time 12 h
Response body: numeric value in h, unit text excluded.

[[record]]
seq_text = "MTIYFINWVADYELKMIQYLKKKYKIKNITTPKKYNWINKKISKIGMDNAWLGRLFIKHYLNDIKKDDIIIINDSVVNKGINKQILKNINCHKVLLLRNTVGEDFILDNANYFDIIYDFEHRFIGNEKIKAIEQFFPIGMDEIRNYSLSDKNNSQPICFFLGRDKGRLQIINELAERLTTLGCKLDFNVVKDKTSSTTSKYLIEKQISYEENIRRTLNANIIVDITKENQSGWTLRILEALFFNKKLITNNINVFGSEIYSESRFFIIGHDDWDKLEYFINSSVKPMDYDSLYKFSPDKMMSTIVSDFIDK"
unit_descriptor = "h"
meas_value = 9.41

[[record]]
seq_text = "MTEPLKPRIDFDGPLEVDQNPKFRAQQTFDENQAQNFAPATLDEAQEEEGQVEAVMDAALRPKRSLWRKMVMGGLALFGASVVGQGVQWTMNAWQTQDWVALGGCAAGALIIGAGVGSVVTEWRRLWRLRQRAHERDEARDLLHSHGTGKGRAFCEKLAQQAGIDQSHPALQRWYASIHETQNDREVVSLYAHLVQPVLDAQARREISRSAAESTLMIAVSPLALVDMAFIAWRNLRLINRIATLYGIELGYYSRLRLFKLVLLNIAFAGASELVREVGMDWMSQDLAARLSTRAAQGIGAGLLTARLGIKAMELCRPLPWIDDDKPRLGDFRRQLIGQVKETLQKGKTPSEK [P0A8R7]"
unit_descriptor = "h"
meas_value = 11.2


We next turn to a different sequence, shown below.
Incoming: Name the recorded total protein half-life in vivo of the item MLKRVFLSLLVLIGLLLLTVLGLDRWMSWKTAPYIYDELQDLPYRQVGVVLGTAKYYRTGVINQYYRYRIQGAINAYNSGKVNYLLLSGDNALQSYNEPMTMRKDLIAAGVDPSDIVLDYAGFRTLDSIVRTRKVFDTNDFIIITQRFHCERALFIALHMGIQAQCYAVPSPKDMLSVRIREFAARFGALADLYIFKREPRFLGPLVPIPAMHQVPEDAQGYPAVTPEQLLELQKKQGK [P0AFY2] in your answer.
Outgoing: 10.9

----------
Recorded total protein half-life in vivo by entry
- Experiment Notes: total protein half-life in vivo (active degradation + dilution); higher = more stable protein
- Condition Details: E. coli NCM3722 delta-smpB; growth: N-lim chemostat; doubling time 6 h
Response body: numeric value in h, unit text excluded.

Example results:
[[record]]
seq_text = "MVDKSQETTHFGFQTVAKEQKADMVAHVFHSVASKYDVMNDLMSFGIHRLWKRFTIDCSGVRRGQTVLDLAGGTGDLTAKFSRLVGETGKVVLADINESMLKMGREKLRNIGVIGNVEYVQANAEALPFPDNTFDCITISFGLRNVTDKDKALRSMYRVLKPGGRLLVLEFSKPIIEPLSKAYDAYSFHVLPRIGSLVANDADSYRYLAESIRMHPDQDTLKAMMQDAGFESVDYYNLTAGVVALHRGYKF [P0A887]"
meas_value = 4.19

[[record]]
seq_text = "MSSNFRHQLLSLSLLVGIAAPWAAFAQAPISSVGSGSVEDRVTQLERISNAHSQLLTQLQQQLSDNQSDIDSLRGQIQENQYQLNQVVERQKQILLQIDSLSSGGAAAQSTSGDQSGAAASTTPTADAGTANAGAPVKSGNANTDYNAAIALVQDKSRQDDAMVAFQNFIKNYPDSTYLPNANYWLGQLNYNKGKKDDAAYYFASVVKNYPKSPKAADAMFKVGVIMQDKGDTAKAKAVYQQVISKYPGTDGAKQAQKRLNAM"
meas_value = 5.27


We next turn to a different sequence, shown below.
Incoming: Name the recorded total protein half-life in vivo of the item MSTLEPAAQSKPPGGFKLWLSQLQMKHGRKLVIALPYIWLILLFLLPFLIVFKISLAEMARAIPPYTELMEWADGQLSITLNLGNFLQLTDDPLYFDAYLQSLQVAAISTFCCLLIGYPLAWAVAHSKPSTRNILLLLVILPSWTSFLIRVYAWMGILKNNGVLNNFLLWLGVIDQPLTILHTNLAVYIGIVYAYVPFMVLPIYTALIRIDYSLVEAALDLGARPLKTFFTVIVPLTKGGIIAGSMLVFIPAVGEFVIPELLGGPDSIMIGRVLWQEFFNNRDWPVASAVAIIMLLLLIVPIMWFHKHQQKSVGEHG in your answer.
Outgoing: 5

----------
- Experiment Notes: total protein half-life in vivo (active degradation + dilution); higher = more stable protein
- Condition Details: wild type E. coli NCM3722; growth: N-lim chemostat; doubling time 6 h
Result Type: total protein half-life in vivo

[[record]]
seq_text = "MKKVLLIILLLLVVLGIAAGVGVWKVRHLADSKLLIKEETIFTLKPGTGRLALGEQLYADKIINRPRVFQWLLRIEPDLSHFKAGTYRFTPQMTVREMLKLLESGKEAQFPLRLVEGMRLSDYLKQLREAPYIKHTLSDDKYATVAQALELENPEWIEGWFWPDTWMYTANTTDVALLKRAHKKMVKAVDSAWEGRADGLPYKDKNQLVTMASIIEKETAVASERDKVASVFINRLRIGMRLQTDPTVIYGMGERYNGKLSRADLETPTAYNTYTITGLPPGAIATPGADSLKAAAHPAKTPYLYFVADGKGGHTFNTNLASHNKSVQDYLKVLKEKNAQ"
meas_value = "6.34 h"


We next turn to a different sequence, shown below.
Incoming: Name the recorded total protein half-life in vivo of the item MMKNILAIQSHVVYGHAGNSAAEFPMRRLGANVWPLNTVQFSNHTQYGKWTGCVMPPSHLTEIVQGIAAIDKLHTCDAVLSGYLGSAEQGEHILGIVRQVKAANPQAKYFCDPVMGHPEKGCIVAPGVAEFHVRHGLPASDIIAPNLVELEILCEHAVNNVEEAVLAARELIAQGPQIVLVKHLARAGYSRDRFEMLLVTADEAWHISRPLVDFGMRQPVGVGDVTSGLLLVKLLQGATLQEALEHVTAAVYEIMVTTKAMQEYELQVVAAQDRIAKPEHYFSATKL in your answer.
Outgoing: 1.83 h

----------
- Experiment Notes: total protein half-life in vivo (active degradation + dilution); higher = more stable protein
- Condition Details: wild type E. coli NCM3722; growth: N-lim chemostat; doubling time 12 h
Recorded total protein half-life in vivo by entry
Response body: numeric value in h, unit text excluded.

Example results:
[[record]]
seq_text = "MKQHQSADNSQGQLYIVPTPIGNLADITQRALEVLQAVDLIAAEDTRHTGLLLQHFGINARLFALHDHNEQQKAETLLAKLQEGQNIALVSDAGTPLINDPGYHLVRTCREAGIRVVPLPGPCAAITALSAAGLPSDRFCYEGFLPAKSKGRRDALKAIEAEPRTLIFYESTHRLLDSLEDIVAVLGESRYVVLARELTKTWETIHGAPVGELLAWVKEDENRRKGEMVLIVEGHKAQEEDLPADALRTLALLQAELPLKKAAALAAEIHGVKKNALYKYALEQQG"
result_type = "total protein half-life in vivo"
meas_value = 10.5

[[record]]
seq_text = "MENYLIDNLDRGILEALMGNARTAYAELAKQFGVSPGTIHVRVEKMKQAGIITGARIDVSPKQLGYDVGCFIGIILKSAKDYPSALAKLESLDEVTEAYYTTGHYSIFIKVMCRSIDALQHVLINKIQTIDEIQSTETLIVLQNPIMRTIKP [P0ACI6]"
result_type = "total protein half-life in vivo"
meas_value = 11.6


Incoming: Name the recorded total protein half-life in vivo of the item MRTVLNILNFVLGGFATTLGWLLATLVSIVLIFTLPLTRSCWEITKLSLVPYGNEAIHVDELNPAGKNVLLNTGGTVLNIFWLIFFGWWLCLMHIATGIAQCISIIGIPVGIANFKIAAIALWPVGRRVVSVETAQAAREANARRRFE [P0AB12] in your answer.
Outgoing: 12.3

Incoming: Name the recorded total protein half-life in vivo of the item MFAEYGVLNYWTYLVGAIFIVLVPGPNTLFVLKNSVSSGMKGGYLAACGVFIGDAVLMFLAWAGVATLIKTTPILFNIVRYLGAFYLLYLGSKILYATLKGKNSEAKSDEPQYGAIFKRALILSLTNPKAILFYVSFFVQFIDVNAPHTGISFFILAATLELVSFCYLSFLIISGAFVTQYIRTKKKLAKVGNSLIGLMFVGFAARLATLQS in your answer.
Outgoing: 8.29

Incoming: Name the recorded total protein half-life in vivo of the item MSHRDTLFSAPIARLGDWTFDERVAEVFPDMIQRSVPGYSNIISMIGMLAERFVQPGTQVYDLGCSLGAATLSVRRNIHHDNCKIIAIDNSPAMIERCRRHIDAYKAPTPVDVIEGDIRDIAIENASMVVLNFTLQFLEPSERQALLDKIYQGLNPGGALVLSEKFSFEDAKVGELLFNMHHDFKRANGYSELEISQKRSMLENVMLTDSVETHKARLHNAGFEHSELWFQCFNFGSLVALKAEDAA in your answer.
Outgoing: 4.86

Incoming: Name the recorded total protein half-life in vivo of the item MTNQPTEIAIVGGGMVGGALALGLAQHGFAVTVIEHAEPAPFVADSQPDVRISAISAASVSLLKGLGVWDAVQAMRCHPYRRLETWEWETAHVVFDAAELKLPLLGYMVENTVLQQALWQALEAHPKVTLRVPGSLIALHRHDDLQELELKGGEVIRAKLVIGADGANSQVRQMAGIGVHAWQYAQSCMLISVQCENDPGDSTWQQFTPDGPRAFLPLFDNWASLVWYDSPARIRQLQNMNMAQLQAEIAKHFPSRLGYVTPLAAGAFPLTRRHALQYVQPGLALVGDAAHTIHPLAGQGVNLGYRDVDALIDVLVNARSYGEAWASYPVLKRYQMRRMADNFIMQSGMDLFYAGFSNNLPPLRFMRNLGLMAAERAGVLKRQALKYALGL in your answer.
Outgoing: 7.16

Incoming: Name the recorded total protein half-life in vivo of the item MFDIGFSELLLVFIIGLVVLGPQRLPVAVKTVAGWIRALRSLATTVQNELTQELKLQEFQDSLKKVEKASLTNLTPELKASMDELRQAAESMKRSYVANDPEKASDEAHTIHNPVVKDNEAAHEGVTPAAAQTQASSPEQKPETTPEPVVKPAADAEPKTAAPSPSSSDKP in your answer.
Outgoing: 8.87

Incoming: Name the recorded total protein half-life in vivo of the item MKKNRAFLKWAGGKYPLLDDIKRHLPKGECLVEPFVGAGSVFLNTDFSRYILADINSDLISLYNIVKMRTDEYVQAARELFVPETNCAEVYYQFREEFNKSQDPFRRAVLFLYLNRYGYNGLCRYNLRGEFNVPFGRYKKPYFPEAELYHFAEKAQNAFFYCESYADSMARADDASVVYCDPPYAPLSATANFTAYHTNSFTLEQQAHLAEIAEGLVERHIPVLISNHDTMLTREWYQRAKLHVVKVRRSISSNGGTRKKVDELLALYKPGVVSPAKK [P0AEE8] in your answer.
Outgoing: 10.1

Incoming: Name the recorded total protein half-life in vivo of the item MIKVLIVDDEPLARENLRVFLQEQSDIEIVGECSNAVEGIGAVHKLRPDVLFLDIQMPRISGLEMVGMLDPEHRPYIVFLTAFDEYAIKAFEEHAFDYLLKPIDEARLEKTLARLRQERSKQDVSLLPENQQALKFIPCTGHSRIYLLQMKDVAFVSSRMSGVYVTSHEGKEGFTELTLRTLESRTPLLRCHRQYLVNLAHLQEIRLEDNGQAELILRNGLTVPVSRRYLKSLKEAIGL [P0AFT5] in your answer.
Outgoing: 7.03

Incoming: Name the recorded total protein half-life in vivo of the item MKVAKDLVVSLAYQVRTEDGVLVDESPVSAPLDYLHGHGSLISGLETALEGHEVGDKFDVAVGANDAYGQYDENLVQRVPKDVFMGVDELQVGMRFLAETDQGPVPVEITAVEDDHVVVDGNHMLAGQNLKFNVEVVAIREATEEELAHGHVHGAHDHHHDHDHDGCCGGHGHDHGHEHGGEGCCGGKGNGGCGCH [P0A9K9] in your answer.
Outgoing: 5.28

Incoming: Name the recorded total protein half-life in vivo of the item MRLGTFHKKKRFYINKIKINFLSFLFRNKINNQITDPAQVKSCLIIHDNNKLGDLIVLSSIYRELYSKGVKITLLTNRKGGEFLSNNKNIFEFCIKESTGFLEMLTLCKHLRDLQFDIVLDPFETMPSFKHSLILSSLKDSYILGFDHWYKRYYSFYHPHDECLKEHMSTRAIEILKHIYGEGKFSTNYDLHLPVDVEDKIKEFIGDTRIVIINPLGAKKICRLTFEQIKVIYQEVKTHFENYRIIFTGLPQDLLTIPILEIETLPFDEFIYTVALTKYSDFVISVDTALVHIAAAYHKPTLAFYPNSRTPEYPSHLIWSPNHHKSIQIVSPTYTVKDIDTETLTNSVKRLSCIDKK in your answer.
Outgoing: 12.8
